# Test system: Diabrotica Balteata (Corn Root Worm)
# Assay text: Diabrotica balteata on maize sprouts, spray
# Type: in vivo
# Condition description: 96 h, application rate 200 ppm, L2 larvae on maize sprouts, 4 days after infestation, read-out: effect in at least one of the two categories (mortality or growth inhibition)
percent effect (mortality or growth inhibition) at 200 ppm values by entry
Attribute measured: percent effect (mortality or growth inhibition) at 200 ppm

| Structure notation | Assay system | Observed value |
| --- | --- | --- |
| CCS(=O)(=O)c1c(-c2nc3cc(C(F)(F)F)cnc3n2C)sc2ccccc12 | Diabrotica Balteata (Corn Root Worm) | ≥ 80% |
| CCS(=O)(=O)c1c(-c2nc3cc(SC(F)(F)F)ncc3n2C)sc2cc(Br)ccc12 | Diabrotica Balteata (Corn Root Worm) | ≥ 80% |
| CCS(=O)(=O)c1c(-c2nc3cc(C(F)(F)F)cnc3n2C)sc2cc(SC(F)(F)F)ccc12 | Diabrotica Balteata (Corn Root Worm) | ≥ 80% |
| CCS(=O)(=O)c1c(-c2nc3cc(C(F)(F)F)cnc3n2C)sc2cc(Br)ccc12 | Diabrotica Balteata (Corn Root Worm) | ≥ 80% |
| CCS(=O)(=O)c1c(-c2nc3cc(C(F)(F)F)ncc3n2C)sc2cc(C(F)(F)F)ccc12 | Diabrotica Balteata (Corn Root Worm) | ≥ 80% |
| CCSc1c(-c2nc3cc(C(F)(F)F)cnc3n2C)sc2ccccc12 | Diabrotica Balteata (Corn Root Worm) | ≥ 80% |
| CCS(=O)(=O)c1c(-c2nc3cc(C(F)(F)F)cnc3n2C)sc2cc(C3CC3)ccc12 | Diabrotica Balteata (Corn Root Worm) | ≥ 80% |
| CCSc1c(-c2nc3cnc(C(F)(F)F)cc3n2C)sc2ccccc12 | Diabrotica Balteata (Corn Root Worm) | ≥ 80% |
| CCS(=O)(=O)c1c(-c2nc3cc(C(F)(F)F)cnc3n2C)sc2cc(-n3ccc(C(F)(F)F)n3)ccc12 | Diabrotica Balteata (Corn Root Worm) | ≥ 80% |
| CCS(=O)(=O)c1c(-c2nc3cnc(C(F)(F)F)cc3n2C)sc2ccccc12 | Diabrotica Balteata (Corn Root Worm) | ≥ 80% |
| CCSc1c(-c2nc3cc(C(F)(F)F)cnc3n2C)sc2cc(C(F)(F)F)ccc12 | Diabrotica Balteata (Corn Root Worm) | ≥ 80% |
| CCS(=O)(=O)c1c(-c2nc3cc(C(F)(F)F)cnc3n2C)sc2cc(C(F)(F)C(F)(F)F)ccc12 | Diabrotica Balteata (Corn Root Worm) | ≥ 80% |
| CCSc1c(-c2nc3cc(C(F)(F)F)ccc3n2C)sc2cc(C(F)(F)F)ccc12 | Diabrotica Balteata (Corn Root Worm) | ≥ 80% |
| CCSc1c(-c2nc3cc(SC(F)(F)F)cnc3n2C)sc2cc(Br)ccc12 | Diabrotica Balteata (Corn Root Worm) | ≥ 80% |
| CCS(=O)(=O)c1c(-c2nc3cc(C(F)(F)F)cnc3n2C)sc2cc(C(F)(F)F)ccc12 | Diabrotica Balteata (Corn Root Worm) | ≥ 80% |
| CCSc1c(-c2nc3cc(C(F)(F)F)ncc3n2C)sc2cc(C(F)(F)F)ccc12 | Diabrotica Balteata (Corn Root Worm) | ≥ 80% |
| CCS(=O)(=O)c1c(-c2nc3cc(SC(F)(F)F)cnc3n2C)sc2cc(Br)ccc12 | Diabrotica Balteata (Corn Root Worm) | ≥ 80% |
| CCS(=O)(=O)c1c(-c2nc3cc(C(F)(F)F)ccc3n2C)sc2cc(C(F)(F)F)ccc12 | Diabrotica Balteata (Corn Root Worm) | ≥ 80% |
| CCSc1c(-c2nc3cc(C(F)(F)F)cnc3n2C)sc2cc(Br)ccc12 | Diabrotica Balteata (Corn Root Worm) | ≥ 80% |
